Test system: MCF10A
Assay: 5+ nucleoli phenotype percent effect (relative to siNT 0% and siKIF11 100%); higher = more cells with five or more nucleoli
Conditions: 20 nM; 72 h
Criterion: 5+ nucleoli phenotype percent effect meeting or surpassing 20%. Met: 1 (yes). Not met: 0 (no).

seq-text: ACUGGGGAGCAGAAGGAGAACC [hsa-miR-4667-5p]
qualitative-label: 0 (no)
--
seq-text: AGGGAAGGGGACGAGGGUUGGG [hsa-miR-5196-5p]
qualitative-label: 0 (no)
--
seq-text: AUGGGGUGAGAUGGGGAGGAGCAGC [hsa-miR-6812-5p]
qualitative-label: 0 (no)
--
seq-text: GAACCCAUGAGGUUGAGGCUGCAGU [hsa-miR-1273d]
qualitative-label: 0 (no)
--
seq-text: GCUCCCUCUAGGGUCGCUCGGA [hsa-miR-4469]
qualitative-label: 1 (yes)
--
seq-text: AUGGGGACAGGGAUCAGCAUGGC [hsa-miR-6810-5p]
qualitative-label: 0 (no)
--
seq-text: CCUAAUUUGAACACCUUCGGUA [hsa-miR-4735-5p]
qualitative-label: 0 (no)
--
seq-text: UCUCUCUCCCACUUCCCUGCAG [hsa-miR-7110-3p]
qualitative-label: 0 (no)
--
seq-text: ACUUGGGCAGGAGGGACCCUGUAUG [hsa-miR-6774-5p]
qualitative-label: 0 (no)
--
seq-text: AUCGGGCCCUCGGCGCCGG [hsa-miR-3181]
qualitative-label: 0 (no)
--
seq-text: UAACUGGUUGAACAACUGAACC [hsa-miR-582-3p]
qualitative-label: 1 (yes)
--
seq-text: CAAAUAAUACCACAGUGGGUGU [hsa-miR-5692a]
qualitative-label: 1 (yes)
--
seq-text: GCUGGGAUUACAGGCAUGAGCC [hsa-miR-619-5p]
qualitative-label: 0 (no)
--
seq-text: AUAUUAUUAGCCACUUCUGGAU [hsa-miR-4795-3p]
qualitative-label: 0 (no)
--
seq-text: GUCCCUGAGUGUAUGUGGUG [hsa-miR-670]
qualitative-label: 1 (yes)
--
seq-text: GAGCUUGGAUGAGCUGGGCUGA [hsa-miR-4538]
qualitative-label: 0 (no)
--
seq-text: UGUGCUUGCUCGUCCCGCCCGCA [hsa-miR-636]
qualitative-label: 0 (no)
--
seq-text: UAUGGCUUUUCAUUCCUAUGUGA [hsa-miR-135b-5p]
qualitative-label: 0 (no)
--
seq-text: GUGACUGAUACCUUGGAGGCAU [hsa-miR-4439]
qualitative-label: 0 (no)
--
seq-text: CGAAUCAUUAUUUGCUGCUCUA [hsa-miR-15b-3p]
qualitative-label: 1 (yes)
--
seq-text: AACAUAGAGGAAAUUCCACGU [hsa-miR-376c-3p]
qualitative-label: 1 (yes)
--
seq-text: CACCGACUCUGUCUCCUGCAG [hsa-miR-6510-3p]
qualitative-label: 0 (no)
--
seq-text: AUAGGCACCAAAAAGCAACAA [hsa-miR-4423-3p]
qualitative-label: 0 (no)
--
seq-text: CUAUACAAUCUACUGUCUUUC [hsa-let-7a-3p]
qualitative-label: 0 (no)
--
seq-text: UUGAAGGGACAAGUCAGAUAUGCC [hsa-miR-6864-5p]
qualitative-label: 0 (no)
--
seq-text: UUGGCCAUGGGGCUGCGCGG [hsa-miR-3187-3p]
qualitative-label: 0 (no)
--
seq-text: CAAAGUGCUCAUAGUGCAGGUAG [hsa-miR-20b-5p]
qualitative-label: 0 (no)
--
seq-text: AAAGUGCUGCGACAUUUGAGCGU [hsa-miR-372]
qualitative-label: 1 (yes)
--
seq-text: AGCCCCCUGGCCCCAAACCC [hsa-miR-4313]
qualitative-label: 0 (no)
--
seq-text: GAAAGUAAUUGCUGUUUUUGCC [hsa-miR-548aq-5p]
qualitative-label: 0 (no)
--
seq-text: CUGACUGUUGCCGUCCUCCAG [hsa-miR-943]
qualitative-label: 0 (no)
--
seq-text: UGUGACAAUAGAGAUGAACAUG [hsa-miR-4504]
qualitative-label: 0 (no)
--
seq-text: UUAGGCCAUCAUCCCAUUAUGC [hsa-miR-5704]
qualitative-label: 1 (yes)
--
seq-text: CUGCAGCCACUUGGGGAACUGGU [hsa-miR-7156-3p]
qualitative-label: 0 (no)
--
seq-text: ACAGGCAGGAUUGGGGAA [hsa-miR-4514]
qualitative-label: 0 (no)
--
seq-text: GCUAAGGAAGUCCUGUGCUCAG [hsa-miR-4521]
qualitative-label: 1 (yes)
--
seq-text: GAGGCAGAAGCAGGAUGACA [hsa-miR-1910-3p]
qualitative-label: 0 (no)
--
seq-text: UGGGCGUAUCUGUAUGCUA [hsa-miR-585]
qualitative-label: 0 (no)
--
seq-text: CACCAGGGCAGAGCAGGGCUGA [hsa-miR-6753-5p]
qualitative-label: 0 (no)
--
seq-text: ACAAGGUGUGCAUGCCUGACC [hsa-miR-4761-5p]
qualitative-label: 0 (no)
--
seq-text: ACUCGCAUCCUUCCCUUGGCAG [hsa-miR-6814-3p]
qualitative-label: 1 (yes)
--
seq-text: UCGAGGACUGGUGGAAGGGCCUU [hsa-miR-3131]
qualitative-label: 0 (no)
--
seq-text: GCAUUGUGCAGGGCUAUCA [hsa-miR-4289]
qualitative-label: 0 (no)
--
seq-text: CAGAGUGACAAGCUGGUUAAAG [hsa-miR-5586-3p]
qualitative-label: 1 (yes)
--
seq-text: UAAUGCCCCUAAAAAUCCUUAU [hsa-miR-365a-3p]
qualitative-label: 0 (no)
--
seq-text: AAUGGCGCCACUAGGGUUGUG [hsa-miR-652-3p]
qualitative-label: 0 (no)
--
seq-text: CACAGGCUUAGAAAAGACAGU [hsa-miR-4438]
qualitative-label: 1 (yes)

// provenance: the supplement of paper PMC10899765
